- target.desc: EPHA6 (human) (UniProt Q9UF33)
- Sequence (Q9UF33 whole entry, looked up): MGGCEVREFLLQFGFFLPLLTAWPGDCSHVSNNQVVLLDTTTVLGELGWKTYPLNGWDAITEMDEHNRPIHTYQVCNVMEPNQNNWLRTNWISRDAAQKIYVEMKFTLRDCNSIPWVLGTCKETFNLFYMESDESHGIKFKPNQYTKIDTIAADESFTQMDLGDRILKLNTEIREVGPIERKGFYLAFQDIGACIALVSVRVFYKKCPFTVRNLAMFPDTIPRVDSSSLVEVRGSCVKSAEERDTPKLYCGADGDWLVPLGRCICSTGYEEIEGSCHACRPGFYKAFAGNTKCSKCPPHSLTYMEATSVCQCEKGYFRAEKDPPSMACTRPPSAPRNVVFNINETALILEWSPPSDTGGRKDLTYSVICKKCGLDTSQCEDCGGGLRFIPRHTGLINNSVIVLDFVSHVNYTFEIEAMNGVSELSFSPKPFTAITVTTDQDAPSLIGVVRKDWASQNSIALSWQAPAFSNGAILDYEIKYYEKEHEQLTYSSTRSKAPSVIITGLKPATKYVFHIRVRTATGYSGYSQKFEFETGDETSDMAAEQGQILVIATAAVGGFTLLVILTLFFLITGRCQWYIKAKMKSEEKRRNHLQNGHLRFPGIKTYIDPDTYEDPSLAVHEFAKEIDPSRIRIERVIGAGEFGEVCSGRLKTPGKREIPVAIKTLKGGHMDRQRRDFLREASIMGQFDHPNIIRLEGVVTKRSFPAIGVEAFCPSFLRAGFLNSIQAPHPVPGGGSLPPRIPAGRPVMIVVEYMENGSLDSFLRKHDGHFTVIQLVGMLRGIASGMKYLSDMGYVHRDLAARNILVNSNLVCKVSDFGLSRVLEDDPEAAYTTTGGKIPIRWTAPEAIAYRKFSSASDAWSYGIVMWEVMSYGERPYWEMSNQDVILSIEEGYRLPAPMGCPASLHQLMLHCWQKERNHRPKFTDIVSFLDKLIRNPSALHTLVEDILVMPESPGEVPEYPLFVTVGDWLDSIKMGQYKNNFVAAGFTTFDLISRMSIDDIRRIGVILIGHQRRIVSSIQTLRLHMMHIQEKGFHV
- protocol.notes: radiometric filter-binding kinase assay, Kinase HotSpot
- reported.conditions: compound 0.5 µM; ATP 10 µM
Parameter residual activity: see the listing below.
Write down the numeric answer in % and omit the unit.

Worked examples follow.
[
  {
    "molecular.string": "O=C1C(Cl)=C(N2C(=O)CCC2=O)C(=O)c2ccccc21",
    "readout.units": "%",
    "residual activity": 89.5
  },
  {
    "molecular.string": "Cc1cccc(-c2nc(C(C)(C)C)[nH]c2-c2ccc3c(c2)OCO3)n1",
    "readout.units": "%",
    "residual activity": 92.7
  },
  {
    "molecular.string": "COc1ccc(S(=O)(=O)N(CCO)c2ccccc2CN(C)C/C=C/c2ccc(Cl)cc2)cc1",
    "readout.units": "%",
    "residual activity": 95.3
  },
  {
    "molecular.string": "N#C/C(=C\\c1ccc(O)c(O)c1)C(=O)NCc1ccccc1",
    "readout.units": "%",
    "residual activity": 95.7
  },
  {
    "molecular.string": "O=C1c2ccccc2-c2nc3nnnn3nc21",
    "readout.units": "%",
    "residual activity": 106
  },
  {
    "molecular.string": "COc1ccc2c(c1)/C(=C/c1cnc[nH]1)C(O)=N2",
    "readout.units": "%",
    "residual activity": 91.3
  },
  {
    "molecular.string": "c1ccc2c(-c3ccncc3)c[nH]c2c1",
    "readout.units": "%",
    "residual activity": 104
  },
  {
    "molecular.string": "O=C1Nc2ccc(Br)cc2/C1=C\\c1cc2c([nH]1)CCCC2",
    "readout.units": "%",
    "residual activity": 89.2
  }
]

Query: Please give measured residual activity of the following entry: CN(C)S(=O)(=O)c1ccc2c(c1)/C(=C/c1cc3c([nH]1)CCCC3)C(=O)N2
Reply: 61.9

Query: Please give measured residual activity of the following entry: C[C@@H]1CCN(C(=O)CC#N)C[C@@H]1N(C)c1ncnc2[nH]ccc12
Reply: 99

Query: Please give measured residual activity of the following entry: Cc1cncc2cccc(S(=O)(=O)N3CCCN(C(=O)CN)C[C@H]3C)c12
Reply: 92.2

====

Parameter residual activity: see the listing below.
- target.desc: SRC (human) (UniProt P12931)
- Sequence (P12931 whole entry, looked up): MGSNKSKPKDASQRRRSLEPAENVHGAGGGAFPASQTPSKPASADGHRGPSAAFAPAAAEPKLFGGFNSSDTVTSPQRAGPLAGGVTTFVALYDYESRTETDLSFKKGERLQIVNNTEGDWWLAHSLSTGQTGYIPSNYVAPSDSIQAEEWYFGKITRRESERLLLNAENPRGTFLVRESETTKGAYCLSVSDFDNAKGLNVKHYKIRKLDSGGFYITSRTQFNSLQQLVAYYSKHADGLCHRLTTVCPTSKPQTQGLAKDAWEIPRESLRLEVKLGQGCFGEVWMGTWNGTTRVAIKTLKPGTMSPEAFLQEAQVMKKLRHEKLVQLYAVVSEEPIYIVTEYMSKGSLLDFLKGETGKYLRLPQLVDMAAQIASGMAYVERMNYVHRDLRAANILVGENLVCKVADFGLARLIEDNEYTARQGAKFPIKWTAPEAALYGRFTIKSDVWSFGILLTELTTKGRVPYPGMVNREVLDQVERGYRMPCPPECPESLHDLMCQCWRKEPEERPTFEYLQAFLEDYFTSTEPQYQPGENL
- protocol.notes: radiometric filter-binding kinase assay, Kinase HotSpot
- reported.conditions: compound 0.5 µM; ATP 10 µM
Answers without a unit are incomplete; give the number and then its unit.

Worked examples follow.
[
  {
    "molecular.string": "Ic1cccc(CSc2nnc(-c3ccncc3)o2)c1",
    "target.desc": "SRC (human) (UniProt P12931)",
    "observation.type": "residual activity",
    "result": "101%"
  },
  {
    "molecular.string": "C[C@@H]1CCN(C(=O)CC#N)C[C@@H]1N(C)c1ncnc2[nH]ccc12",
    "target.desc": "SRC (human) (UniProt P12931)",
    "observation.type": "residual activity",
    "result": "99.8%"
  },
  {
    "molecular.string": "O=C1C(Cl)=C(N2C(=O)CCC2=O)C(=O)c2ccccc21",
    "target.desc": "SRC (human) (UniProt P12931)",
    "observation.type": "residual activity",
    "result": "95.1%"
  }
]

Next molecule, residual activity to be filled in.
Query: Please give measured residual activity of the following entry: COc1ccc(S(=O)(=O)N(CCO)c2ccccc2CN(C)C/C=C/c2ccc(Cl)cc2)cc1
Reply: 92.7%

====

- target.desc: UniProt:Q86Z02
- Sequence (Q86Z02 whole entry, looked up): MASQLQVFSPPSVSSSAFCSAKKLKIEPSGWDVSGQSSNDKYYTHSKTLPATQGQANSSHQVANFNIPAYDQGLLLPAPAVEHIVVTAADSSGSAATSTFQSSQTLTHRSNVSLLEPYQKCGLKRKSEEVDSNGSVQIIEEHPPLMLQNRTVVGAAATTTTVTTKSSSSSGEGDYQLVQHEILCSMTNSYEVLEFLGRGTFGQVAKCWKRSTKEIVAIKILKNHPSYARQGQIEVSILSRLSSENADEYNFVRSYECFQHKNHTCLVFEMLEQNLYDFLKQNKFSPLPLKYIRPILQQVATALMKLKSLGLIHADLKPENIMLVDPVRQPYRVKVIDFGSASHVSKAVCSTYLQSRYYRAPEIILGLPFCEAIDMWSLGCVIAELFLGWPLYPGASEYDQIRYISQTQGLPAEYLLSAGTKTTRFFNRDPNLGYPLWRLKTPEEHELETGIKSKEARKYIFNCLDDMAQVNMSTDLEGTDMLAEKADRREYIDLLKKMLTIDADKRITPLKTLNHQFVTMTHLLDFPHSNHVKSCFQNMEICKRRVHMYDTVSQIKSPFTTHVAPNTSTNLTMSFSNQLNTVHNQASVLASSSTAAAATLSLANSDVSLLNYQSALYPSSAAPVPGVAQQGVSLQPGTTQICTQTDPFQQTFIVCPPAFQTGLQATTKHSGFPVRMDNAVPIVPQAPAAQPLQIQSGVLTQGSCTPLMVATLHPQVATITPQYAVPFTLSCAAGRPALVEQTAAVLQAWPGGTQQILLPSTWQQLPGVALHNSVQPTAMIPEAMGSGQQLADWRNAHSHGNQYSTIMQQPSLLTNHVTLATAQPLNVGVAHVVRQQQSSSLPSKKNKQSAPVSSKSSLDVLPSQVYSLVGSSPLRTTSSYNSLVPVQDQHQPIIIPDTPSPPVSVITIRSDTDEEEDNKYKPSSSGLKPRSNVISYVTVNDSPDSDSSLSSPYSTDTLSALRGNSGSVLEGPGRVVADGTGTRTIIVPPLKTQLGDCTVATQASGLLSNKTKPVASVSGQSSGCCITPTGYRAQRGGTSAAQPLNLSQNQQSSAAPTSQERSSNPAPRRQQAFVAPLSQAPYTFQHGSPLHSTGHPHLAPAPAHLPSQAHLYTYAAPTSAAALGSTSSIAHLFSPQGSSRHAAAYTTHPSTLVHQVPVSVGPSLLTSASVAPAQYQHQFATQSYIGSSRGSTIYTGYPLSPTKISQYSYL
- protocol.notes: radiometric filter-binding kinase assay, Kinase HotSpot
- reported.conditions: compound 0.5 µM; ATP 10 µM
Parameter residual activity: see the listing below.
Write down the numeric answer in % and omit the unit.

Worked examples follow.
[
  {
    "molecular.string": "O=C1Nc2ccc(Br)cc2/C1=C\\c1cc2c([nH]1)CCCC2",
    "observation.type": "residual activity",
    "readout.units": "%",
    "result.number": 97.2
  },
  {
    "molecular.string": "COc1ccc2c(c1)c(C1=C(c3c[nH]c4ccccc34)C(=O)NC1=O)cn2CCCN(C)C",
    "observation.type": "residual activity",
    "readout.units": "%",
    "result.number": 77.7
  },
  {
    "molecular.string": "C[C@@H]1CCN(C(=O)CC#N)C[C@@H]1N(C)c1ncnc2[nH]ccc12",
    "observation.type": "residual activity",
    "readout.units": "%",
    "result.number": 98.1
  },
  {
    "molecular.string": "CC(C)(C)c1cc(C=C(C#N)C#N)cc(Br)c1O",
    "observation.type": "residual activity",
    "readout.units": "%",
    "result.number": 104
  },
  {
    "molecular.string": "CN(C)c1ccc(/C=C2\\C(=O)Nc3ccccc32)cc1",
    "observation.type": "residual activity",
    "readout.units": "%",
    "result.number": 103
  }
]

Query: Answer with residual activity of N#C/C(=C\c1ccc(O)c(O)c1)C(=O)NCc1ccccc1 measured for UniProt:Q86Z02.
Reply: 101

Query: Answer with residual activity of COc1ccc(S(=O)(=O)N(CCO)c2ccccc2CN(C)C/C=C/c2ccc(Cl)cc2)cc1 measured for UniProt:Q86Z02.
Reply: 106

Query: Answer with residual activity of O=C1C(Cl)=C(N2C(=O)CCC2=O)C(=O)c2ccccc21 measured for UniProt:Q86Z02.
Reply: 104

Query: Answer with residual activity of O=C(c1cc2cc(O)ccc2[nH]1)c1cc2cc(O)ccc2[nH]1 measured for UniProt:Q86Z02.
Reply: 94.3

Query: Answer with residual activity of CS(=O)(=O)CCNCc1ccc(-c2ccc3ncnc(Nc4ccc(OCc5cccc(F)c5)c(Cl)c4)c3c2)o1 measured for UniProt:Q86Z02.
Reply: 97.1

====

Parameter residual activity: see the listing below.
- target.desc: GSG2 (human)
- protocol.notes: radiometric filter-binding kinase assay, Kinase HotSpot
- reported.conditions: compound 0.5 µM; ATP 10 µM
Write down the numeric answer in % and omit the unit.

Worked examples follow.
[
  {
    "molecular.string": "O=C1NC(=O)c2c1c1c3ccccc3[nH]c1n1cncc21",
    "observation.type": "residual activity",
    "result.number": 33.5
  },
  {
    "molecular.string": "CO[C@@H]1[C@H](N(C)C(=O)c2ccccc2)C[C@H]2O[C@]1(C)n1c3ccccc3c3c4c(c5c6ccccc6n2c5c31)C(=O)NC4",
    "observation.type": "residual activity",
    "result.number": 70.2
  },
  {
    "molecular.string": "N#Cc1c[nH]c2c[nH]/c(=N\\Cc3cccnc3)cc2/c1=N\\c1ccc(F)c(Cl)c1",
    "observation.type": "residual activity",
    "result.number": 82.5
  }
]

Query: Answer with residual activity of Ic1cccc(CSc2nnc(-c3ccncc3)o2)c1 measured for GSG2 (human).
Reply: 95.9

Query: Answer with residual activity of O=C1Nc2ccc(Br)cc2/C1=C\c1cc2c([nH]1)CCCC2 measured for GSG2 (human).
Reply: 88

Query: Answer with residual activity of COc1ccc2c(c1)/C(=C/c1cnc[nH]1)C(O)=N2 measured for GSG2 (human).
Reply: 72.2

Query: Answer with residual activity of COc1cc2ncnc(Nc3ccc(OCc4ccccc4)cc3)c2cc1OC measured for GSG2 (human).
Reply: 86.2

Query: Answer with residual activity of Fc1ccc(-c2nc3n(c2-c2ccncc2)CCS3)cc1 measured for GSG2 (human).
Reply: 104

Query: Answer with residual activity of Cn1c2ccccc2c2c3c(c4c5ccccc5n(CCC#N)c4c21)CNC3=O measured for GSG2 (human).
Reply: 27.2

====

- target.desc: DYRK1A (human) (UniProt Q13627)
- protocol.notes: radiometric filter-binding kinase assay, Kinase HotSpot
- reported.conditions: compound 0.5 µM; ATP 10 µM
Parameter residual activity: see the listing below.
Write down the numeric answer in % and omit the unit.

Worked examples follow.
[
  {
    "molecular.string": "COc1ccc2c(c1)c(C1=C(c3c[nH]c4ccccc34)C(=O)NC1=O)cn2CCCN(C)C",
    "target.desc": "DYRK1A (human) (UniProt Q13627)",
    "readout.units": "%",
    "result.number": 84.7
  },
  {
    "molecular.string": "c1ccc2c(-c3ccncc3)c[nH]c2c1",
    "target.desc": "DYRK1A (human) (UniProt Q13627)",
    "readout.units": "%",
    "result.number": 77.6
  }
]

Query: Please give measured residual activity of the following entry: CN(C)CCCn1cc(C2=C(c3c[nH]c4ccccc34)C(=O)NC2=O)c2ccccc21
Reply: 54.7

Query: Please give measured residual activity of the following entry: Cc1cccc(-c2nc(C(C)(C)C)[nH]c2-c2ccc3c(c2)OCO3)n1
Reply: 98.4

Query: Please give measured residual activity of the following entry: CC(C)(C)c1cc(C=C(C#N)C#N)cc(Br)c1O
Reply: 95.4
